- assayTarget: GlcNAc(b1-4)GlcNAc(b1-4)GlcNAc
- measurementProtocol: glycan array binding signal (z-score within array); higher = stronger binding
- experimentalContext: glycan notation: IUPAC condensed, linker removed
Shown is part of a subset that was picked to be rich in the strongest signals.
Reported values of glycan array binding signal (z-score) for individual entries

binder | glycan array binding signal (z-score)
LecB PA7 (Pseudomonas aeruginosa) (protein) MATQGVFTLPANTRFGVTAFANSSATQTVKVLVNNETAATFTGQSTNNAVIGSQVLNSGGGGKVQIQVSVNGRSSDLVSAQVILANELNVALVGSEDSTDNDYNDAVVVINWPLG | -0.497

Ask | Data request, read-out glycan array binding signal (z-score), for F17-L (Escherichia coli) (protein) GPDDYVPSQIAVNTSTLPGVVIGPADAHTYPRVIGELAGTSNQYVFNGGAIALMRGKFTPALPKIGSITYTFHQGNSRDSSDFDIYDIGVSGLGIIIGMAGYWPATPLVPINSSGIYIDPVGANTNPNTYNGATASFGARLFVAFVATGRLPNGYITIPTRQLGTILLEAKRTSLNNKGLTAPVMLNGGRIQVQSQTHHHHHH
Reply | -0.131

Ask | Entry to check: F17eG (Escherichia coli), Q9RH92 (protein) MTNFYKVFLAVFILVCCNISHAAVSFIGSTENDVGPSQSSYSRTHAMDNLPFVYNTGYNIGYQNANVWRISGGFCVGLDGKVDLPVVGSLDGQSIYGLTEEVGLLIWMGDTNYSRGTAMSGNSWENVFSGWCVGNYVSTQGLSVHVRPVILKRNSSAQYSVQKTSIGSIRMRPYNGSSAGSVQTTVNFSLNPFTLNDTVTSCRLLTPSAVNVSLAAISAGQLPSSGDEVVAGTTSLKLQCDAGVTVWATLTDATTPSNRSDILTLTGASTATGVGLRIYKNTDSTPLKFGPDSPVKGNENQWQLSTGTETSPSVRLYVKYVNTGEGINPGTVNGISTFTFSYQ
Reply | 0.197

Ask | Entry to check: Mg1lysM (Mycosphaerella graminicola) (protein) QRNPITITPQFDCGATNSQQYVARSGDTLTKIAQEIYHDVVGVCDIARANNLADPNRIDAGTPYTIPINCQTYDRNSCL
Reply | 16.5
